# pKd per record follows
STUDY_TARGET: T1, extracellular domain of rhesus monkey BCMA (rhesus monkey, UniProt F7FFA0 1-53)
T1 construct: extracellular domain; also called RhBCMA
T1 sequence (F7FFA0 entry or part of it): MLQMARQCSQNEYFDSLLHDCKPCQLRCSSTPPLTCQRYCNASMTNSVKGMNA
ASSAY_METHOD_TEXT: Octet BLI; Fab 200 nM
pKd: −log10 of the molar value.

[
  {
    "BINDER": "AB200-R1a-Fab_VH2 (Fab, V domains shown) VH: QVQLVQSGAEVKKPGSSVKVSCKASGGTFSNYWMHWVRQAPGQGLEWMGATYRGHSDTYYNQKFQGRVTITADKSTSTAYMELSSLRSEDTAVYYCARGAVFHGYDVLDNWGQGTLVTVSS VL: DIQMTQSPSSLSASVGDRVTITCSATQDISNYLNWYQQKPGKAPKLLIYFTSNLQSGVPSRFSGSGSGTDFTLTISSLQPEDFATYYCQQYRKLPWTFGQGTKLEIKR",
    "pKd": 7.95
  },
  {
    "BINDER": "AB200-R1a-Fab_VH8 (Fab, V domains shown) VH: QVQLVQSGAEVKKPGSSVKVSCKASGGTFSNYWMHWVRQAPGQGLEWMGATYRSHSDTYYNQKFKGRVTITADESTSTAYMELSSLRSEDTAVYYCARGAIFHGYDVLDNWGQGTLVTVSS VL: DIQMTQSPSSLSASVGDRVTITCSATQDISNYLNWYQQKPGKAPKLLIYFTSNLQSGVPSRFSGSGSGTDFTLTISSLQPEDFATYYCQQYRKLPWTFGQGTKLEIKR",
    "pKd": 8.50
  },
  {
    "BINDER": "AB200-R1a-Fab_VH21 (Fab, V domains shown) VH: QVQLVQSGAEVKKPGSSVKVSCKASGGTFSNYAMHWVRQAPGQGLEWMGATYRGQSDTYYNQKYKGRVTITADKSTSTAYMELSSLRSEDTAVYYCARGAIYHGYDVLDNWGQGTLVTVSS VL: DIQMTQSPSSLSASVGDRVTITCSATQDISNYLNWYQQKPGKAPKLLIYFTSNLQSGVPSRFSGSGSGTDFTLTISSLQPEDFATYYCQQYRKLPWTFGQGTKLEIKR",
    "pKd": 7.95
  },
  {
    "BINDER": "AB200-R1a-Fab_VH54 (Fab, V domains shown) VH: QVQLVQSGAEVKKPGSSVKVSCKASGGTFSNYWMHWVRQAPGQGLEWMGATYRGHGDTFYNQKFKGRVTITADKSTSTAYMELSSLRSEDTAVYYCARGAIYHGYDVLNNWGQGTLVTVSS VL: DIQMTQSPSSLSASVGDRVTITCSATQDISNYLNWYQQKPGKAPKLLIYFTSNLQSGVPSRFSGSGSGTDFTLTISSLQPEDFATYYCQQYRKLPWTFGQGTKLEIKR",
    "pKd": 7.68
  },
  {
    "BINDER": "AB200-R1a-Fab_VH60 (Fab, V domains shown) VH: QVQLVQSGAEVKKPGSSVKVSCKASGGTFSSYWMHWVRQAPGQGLEWMGATYRIHSDSYYNQKFKGRVTITADKSTSTAYMELSSLRSEDTAVYYCARGAIYHGYDVLDNWGQGTLVTVSS VL: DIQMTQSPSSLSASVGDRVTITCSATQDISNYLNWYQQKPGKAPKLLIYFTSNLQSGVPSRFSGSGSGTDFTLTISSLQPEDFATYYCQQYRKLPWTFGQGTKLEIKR",
    "pKd": 7.75
  }
]

Origin of values: patent US20240327535A1
